# SYSTEM UNDER TEST: RORγ LBD-GST tagged (Homo sapiens, UniProt P51449)
# Construct: RORγ LBD-GST tagged (Cat No. RORC-114H, Creative Biomart); purchased Creative Biomart RORC-114H
# Sequence (P51449 269-508 limits assumed): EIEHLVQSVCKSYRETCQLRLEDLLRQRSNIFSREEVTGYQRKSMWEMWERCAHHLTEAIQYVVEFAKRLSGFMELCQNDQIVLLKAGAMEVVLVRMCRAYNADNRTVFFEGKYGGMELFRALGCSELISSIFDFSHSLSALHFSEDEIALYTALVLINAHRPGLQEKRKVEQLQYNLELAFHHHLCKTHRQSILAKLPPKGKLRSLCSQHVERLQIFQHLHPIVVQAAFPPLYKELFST
# EXPERIMENT SUMMARY: LanthaScreen TR-FRET RORγ coactivator assay
# Assay type: biochemical
# REPORTED CONDITIONS: Fluorescein-D22 coactivator peptide, 1 hour room temperature
ENDPOINT: IC50 (µM)
Give just the number in µM; leave the unit off.

## Task State the recorded IC50 for this entry: O=S(=O)(CC1CC1)c1ccc(C(CO)c2nc3c(Cl)c(-c4ccccc4OC(F)F)c(Cl)cc3[nH]2)c(F)c1 (stereo not drawn)
## Result 0.025

## Task State the recorded IC50 for this entry: CC(C)Oc1ccccc1-c1c(Cl)cc2nc(C(O)c3ccc(S(=O)(=O)CC4CC4)cc3)[nH]c2c1Cl (stereo not drawn)
## Result 0.024

## Task State the recorded IC50 for this entry: CC(=O)NCCC(c1ccc(S(=O)(=O)CC2CC2)cc1)c1nc2cc(-c3ccccc3OC(F)F)c(Cl)cc2[nH]1 (single isomer, unassigned) [166 or 167 made from Int-164A]
## Result 0.01

## Task State the recorded IC50 for this entry: CCS(=O)(=O)c1ccc(C(O)c2nc3c(Cl)c(-c4ccccc4C(F)(F)F)c(Cl)cc3[nH]2)c(F)c1 (stereo not drawn)
## Result 0.048

## Task State the recorded IC50 for this entry: CS(=O)(=O)c1ccc(C(CO)c2nc3c(Cl)c(-c4ccccc4OC(F)(F)F)c(Cl)cc3[nH]2)cc1 (stereo not drawn)
## Result 0.187

## Task State the recorded IC50 for this entry: CCS(=O)(=O)c1ccc(C(O)c2nc3c(Cl)c(-c4ccccc4OC)c(Cl)cc3[nH]2)cc1 (stereo not drawn)
## Result 0.086

## Task State the recorded IC50 for this entry: CC(C)Oc1ccccc1-c1cc2nc(C(CCO)c3ccc(S(=O)(=O)CC4CC4)cc3)[nH]c2cc1Cl (stereo not drawn) [Example 144]
## Result 0.011

## Task State the recorded IC50 for this entry: CC(C)Oc1ccccc1-c1cc2nc(C(CCO)c3ccc(S(=O)(=O)CC4CC4)cc3)[nH]c2cc1Cl (single isomer, unassigned)
## Result 0.787

## Task State the recorded IC50 for this entry: CCS(=O)(=O)c1ccc(C(CC(N)=O)c2nc3c(Cl)c(N4CCC(F)(F)CC4)c(Cl)cc3[nH]2)cc1 (single isomer, unassigned)
## Result 0.057

## Task State the recorded IC50 for this entry: CC(C)Oc1ccccc1-c1cc2nc(C(CCO)c3ccc(S(=O)(=O)CC4CC4)cc3)[nH]c2cc1Cl (single isomer, unassigned) [the longer retention time of 150 and 151]
## Result 0.026

## Task State the recorded IC50 for this entry: NC(=O)CC(c1ccc(S(=O)(=O)CC2CC2)cc1)c1nc2cc(Cl)c(-c3ccccc3OC(F)F)cc2[nH]1 (stereo not drawn)
## Result 0.01

## Task State the recorded IC50 for this entry: CCOc1ccccc1-c1c(Cl)cc2nc(C(CO)c3ccc(S(=O)(=O)CC4CC4)cc3)[nH]c2c1Cl (stereo not drawn)
## Result 0.013

---

# SYSTEM UNDER TEST: RORγ LBD-GST tagged (Homo sapiens, UniProt P51449)
# Construct: RORγ LBD-GST tagged (Cat No. RORC-114H, Creative Biomart); purchased Creative Biomart RORC-114H
# Sequence (P51449 269-508 limits assumed): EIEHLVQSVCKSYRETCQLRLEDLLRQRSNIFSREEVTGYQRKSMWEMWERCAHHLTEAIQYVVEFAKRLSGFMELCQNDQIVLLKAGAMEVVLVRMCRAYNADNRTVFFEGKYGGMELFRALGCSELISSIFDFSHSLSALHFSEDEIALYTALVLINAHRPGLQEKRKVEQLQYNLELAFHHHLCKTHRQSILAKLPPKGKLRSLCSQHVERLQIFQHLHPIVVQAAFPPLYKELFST
# EXPERIMENT SUMMARY: LanthaScreen TR-FRET RORγ coactivator assay
# Assay type: biochemical
# REPORTED CONDITIONS: Fluorescein-D22 coactivator peptide, 1 hour room temperature
Exercise: state measured log10 IC50 for each of the compounds provided.
log10 IC50, µM

## Task State the recorded log10 IC50 for this entry: `CCS(=O)(=O)c1ccc(Cc2nc3c(F)c(-c4ccccc4OC(F)(F)F)c(F)cc3[nH]2)cc1`
## Result -1.49

## Task State the recorded log10 IC50 for this entry: O=S(=O)(CC1CC1)c1ccc(C(O)c2nc3c(Cl)c(-c4ccccc4Cl)c(Cl)cc3[nH]2)cc1 (stereo not drawn)
## Result -1.64

## Task State the recorded log10 IC50 for this entry: NC(=O)CC(c1ccc(S(=O)(=O)CC2CC2)cc1)c1nc2cc(Cl)c(-c3ccccc3OC(F)F)c(Cl)c2[nH]1 (stereo not drawn)
## Result -2.30

## Task State the recorded log10 IC50 for this entry: O=S(=O)(CC1CC1)c1ccc(C(CCO)c2nc3cc(Cl)c(N4CCC(F)(F)CC4)c(Cl)c3[nH]2)cc1 (single isomer, unassigned) [the longer retention time of 160 and 161]
## Result -2.52

## Task State the recorded log10 IC50 for this entry: O=S(=O)(NC1CC1)c1ccc(C(CO)c2nc3c(Cl)c(-c4ccccc4OC(F)(F)F)c(Cl)cc3[nH]2)cc1 (stereo not drawn)
## Result -1.52

## Task State the recorded log10 IC50 for this entry: `CCS(=O)(=O)c1ccc(Cc2nc3c(Cl)c(-c4ccccc4OC(C)C)c(Cl)cc3[nH]2)cc1`
## Result -0.04

## Task State the recorded log10 IC50 for this entry: O=S(=O)(CC1CC1)c1ccc(C(O)c2nc3c(Cl)c(-c4ccccc4OC(F)F)c(Cl)cc3[nH]2)c(F)c1 (stereo not drawn)
## Result -1.85

## Task State the recorded log10 IC50 for this entry: CCS(=O)(=O)c1ccc(C(O)c2nc3c(Cl)c(-c4ccccc4)c(Cl)cc3[nH]2)cc1 (stereo not drawn)
## Result -0.33

## Task State the recorded log10 IC50 for this entry: `CC(C)S(=O)(=O)c1ccc(Cc2nc3c(Cl)c(-c4ccccc4OC(F)(F)F)c(Cl)cc3[nH]2)cc1`
## Result -0.47

---

# SYSTEM UNDER TEST: RORγ LBD-GST tagged (Homo sapiens)
# Construct: RORγ LBD-GST tagged (Cat No. RORC-114H, Creative Biomart); purchased Creative Biomart RORC-114H
# EXPERIMENT SUMMARY: LanthaScreen TR-FRET RORγ coactivator assay
# Format: biochemical
# REPORTED CONDITIONS: Fluorescein-D22 coactivator peptide, 1 hour room temperature
IC50 less than 0.08 µM is Y; IC50 greater than or equal to 0.08 µM is N.

## Task Consider CC(=O)NCC(c1ccc(S(=O)(=O)CC2CC2)cc1)c1nc2cc(Cl)c(-c3ccccc3OC(F)F)cc2[nH]1 (stereo not shown) . Does its IC50 lie strictly below 0.08 µM?
## Result Y

## Task Consider CCOc1ccccc1-c1c(Cl)cc2[nH]c(C(CO)c3ccc(S(=O)(=O)CC)cc3)nc2c1Cl (stereo not shown) . Does its IC50 lie strictly below 0.08 µM?
## Result N

## Task Consider CCS(=O)(=O)c1ccc(C(O)c2nc3c(Cl)c(-c4cc(Cl)ccc4Cl)c(Cl)cc3[nH]2)cc1 (stereo not shown) . Does its IC50 lie strictly below 0.08 µM?
## Result N

## Task Consider CC(C)Oc1ccccc1-c1cc2nc(C(CC(N)=O)c3ccc(S(=O)(=O)CC4CC4)cc3)[nH]c2cc1Cl (single isomer, unassigned) [the longer retention time of 148 and 149] . Does its IC50 lie strictly below 0.08 µM?
## Result N

## Task Consider CCS(=O)(=O)c1ccc(C(NC(C)=O)c2nc3c(Cl)c(-c4ccccc4OC(F)(F)F)c(Cl)cc3[nH]2)cc1 (stereo not shown) . Does its IC50 lie strictly below 0.08 µM?
## Result Y

## Task Consider `CCCS(=O)(=O)c1ccc(Cc2nc3c(Cl)c(-c4ccccc4OC(F)(F)F)c(Cl)cc3[nH]2)cc1` . Does its IC50 lie strictly below 0.08 µM?
## Result N

## Task Consider COc1ccccc1-c1c(Cl)cc2nc(C(CO)c3ccc(S(=O)(=O)CC4CC4)cc3)[nH]c2c1Cl (stereo not shown) . Does its IC50 lie strictly below 0.08 µM?
## Result Y

## Task Consider CCS(=O)(=O)c1ccc(C(CO)c2nc3c(C)c(-c4ccccc4OC)c(C)cc3[nH]2)cc1 (stereo not shown) . Does its IC50 lie strictly below 0.08 µM?
## Result N

## Task Consider `O=S(=O)(CCF)c1ccc(Cc2nc3c(Cl)c(-c4ccccc4C(F)(F)F)c(Cl)cc3[nH]2)cc1` . Does its IC50 lie strictly below 0.08 µM?
## Result N
